Reported values of pIC50 for individual entries
- SYSTEM_UNDER_TEST: HMGR (Homo sapiens (Human))
- Sequence (P04035 426-888 limits assumed): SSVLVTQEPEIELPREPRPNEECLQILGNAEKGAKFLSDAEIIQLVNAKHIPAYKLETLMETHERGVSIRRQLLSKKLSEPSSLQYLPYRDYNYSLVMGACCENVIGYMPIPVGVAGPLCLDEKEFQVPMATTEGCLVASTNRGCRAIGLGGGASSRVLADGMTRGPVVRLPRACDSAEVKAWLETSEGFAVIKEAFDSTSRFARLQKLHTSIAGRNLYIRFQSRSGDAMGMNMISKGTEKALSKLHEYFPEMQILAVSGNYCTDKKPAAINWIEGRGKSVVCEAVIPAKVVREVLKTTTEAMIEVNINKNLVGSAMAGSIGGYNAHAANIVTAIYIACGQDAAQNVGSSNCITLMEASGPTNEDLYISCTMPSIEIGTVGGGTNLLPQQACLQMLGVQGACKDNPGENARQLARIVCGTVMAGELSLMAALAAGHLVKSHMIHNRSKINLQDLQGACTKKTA
- MEASUREMENT_PROTOCOL: HMG-CoA reductase (HMGR) activity assay, recombinant protein
- ASSAY_CONTEXT: mean ± SD of three experiments
- Text: HMG-CoA Reductase (HMGR) Activity Assay.
pIC50: −log10 of the molar value.

| COMPOUND | pIC50 |
| --- | --- |
| C#Cc1ccc(NC(=O)O[C@H]2C[C@@H](C)C=C3C=C[C@H](C)[C@H](CC[C@@H]4C[C@@H](O[Si](C)(C)C(C)(C)C)CC(=O)O4)[C@H]32)cc1 [6a] | 7.44 |
| C#Cc1ccc(CNC(=O)O[C@H]2C[C@@H](C)C=C3C=C[C@H](C)[C@H](CC[C@@H]4C[C@@H](O[Si](C)(C)C(C)(C)C)CC(=O)O4)[C@H]32)cc1 [6b] | 7.27 |
